Test system: RARg:RXRa (NR concentration 270 nM, RXRa partner concentration 90 nM)
TEST: PBM binding z-score (relative to random genomic background probes); higher = stronger binding; sequences stand for … in GC…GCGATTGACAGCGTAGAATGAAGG
OBSERVATION_TYPE: PBM binding z-score

# SEQUENCE_TEXT, TARGET_OF_ASSAY, ASSAY_VALUE
rows = [
    ("CGTCCAAGGTTATAGGAGGTCAGTGAAGACAGAT", "RARg:RXRa (NR concentration 270 nM, RXRa partner concentration 90 nM)", 3.62),
    ("CCTGCTAGGTCGTGGTCAGCTAATCTACAGTATG", "RARg:RXRa (NR concentration 270 nM, RXRa partner concentration 90 nM)", 0.958),
    ("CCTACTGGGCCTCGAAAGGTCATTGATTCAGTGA", "RARg:RXRa (NR concentration 270 nM, RXRa partner concentration 90 nM)", 4.09),
    ("ACTATTAGTCGACTTAGGGCAACCGATACGACGC", "RARg:RXRa (NR concentration 270 nM, RXRa partner concentration 90 nM)", 0.342),
    ("GCTTGTAGATCAAGGGTAAGAAAGACTAAGCTAA", "RARg:RXRa (NR concentration 270 nM, RXRa partner concentration 90 nM)", -0.317),
    ("TCTTGTAGATCAAGCAGGTTAAGAAAGCCTGAGT", "RARg:RXRa (NR concentration 270 nM, RXRa partner concentration 90 nM)", 0.0826),
    ("CCTACAGGGCCACGAAAGGTCATTGATTCAGTGA", "RARg:RXRa (NR concentration 270 nM, RXRa partner concentration 90 nM)", 5.13),
    ("CCTACTGGGCCATTCAGAGGTGATTGATCATATG", "RARg:RXRa (NR concentration 270 nM, RXRa partner concentration 90 nM)", 0.611),
    ("CCTAGCAGGCCAATCTGGTTCACTCAAGGCTTGA", "RARg:RXRa (NR concentration 270 nM, RXRa partner concentration 90 nM)", -0.172),
    ("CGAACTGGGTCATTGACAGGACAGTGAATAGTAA", "RARg:RXRa (NR concentration 270 nM, RXRa partner concentration 90 nM)", 4.32),
    ("ACTATTAGCTGAGACGAGGGCAACCGATAGGTTG", "RARg:RXRa (NR concentration 270 nM, RXRa partner concentration 90 nM)", 0.452),
    ("TCTATTAGTTGAACGGCAACCGACGAGTCCGTTT", "RARg:RXRa (NR concentration 270 nM, RXRa partner concentration 90 nM)", 0.0941),
]

----------
Tested on: RARa homodimer (NR concentration 270 nM)
TEST: PBM binding z-score (relative to random genomic background probes); higher = stronger binding; sequences stand for … in GC…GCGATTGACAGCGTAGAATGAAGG

# SEQUENCE_TEXT, PBM binding z-score
rows = [
    ("CCTATTAGTTAACCATAAGGGCAACCGAAGCTCG", 1.42),
    ("AGAACGAGGGCAATGAGTAGATAGCACGGGTGGC", 0.137),
    ("GGAACGAGGGCAAGTTGATTGCAGAGTTTGATGG", -0.397),
    ("TAGCCTAGGTCAGATGGGGCCAGTATACGCTATA", -0.56),
    ("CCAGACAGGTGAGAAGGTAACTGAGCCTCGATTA", 0.118),
    ("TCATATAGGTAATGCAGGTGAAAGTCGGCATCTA", 0.52),
    ("TGAATGAGGTTAAAGATCAGGGCACGTGGCGTCG", 0.14),
    ("TGAATGAGGTTAAAGATCTGGGAACGTGGCGTCG", -0.239),
    ("TAGCCTAGGTCATGCGGGCCAGTATCGTGTCGGC", -0.99),
    ("TCTCGGAGGACACGTAAGGTCAGAGCTCGACATC", 0.0447),
    ("CCTTACGGGGCAAGGTTATAGCACGGGTGGTACG", 0.0698),
    ("GCGACTGGGGCGAAGCAGGTTACCATAAGGTTGG", -0.898),
    ("GCTTACGGATCAAAGGTTATAGCATGAATAGAAT", 0.0862),
    ("GGAACGAGGACAAGTTGATAGCAGAGTTTGATGG", -0.522),
    ("CAAACTAGGTCACGAAAGGTCAAGGTCGAATGAC", 3.81),
    ("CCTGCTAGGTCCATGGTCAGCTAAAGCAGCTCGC", -1.05),
    ("CCTGACAGGTGAAAGGTAACTCAGTCTGGTACGC", 0.115),
    ("CCTTACGGGTCACTGACAGGTTATGGCATTTGGA", 1.29),
    ("TCTCGGAGGACACGAATGTCAGAGCTTTCCAGAG", -0.458),
    ("TCTAGTTGATCACGGAGGTCACACACGACGGGTA", 0.922),
    ("TCTCGGAGGACACGGAAGGTCAGAGCTCGACATC", -0.138),
    ("TCTCGGAGGACACGAAGGTCAGAACTTTCCAGAG", 0.264),
    ("CCTAGCAGGCCAGGGTCTCTCAAGCATTTCGCTT", -1.17),
    ("CGTCCAAGGTCAAGGTCCGTGAAAGAGACTCGAA", 0.5),
    ("CCTCGCAGGCCAATCTGGGTCACTCAAGGCTTGA", -0.288),
    ("ATCGAAAGGTCGAGGTGAGTTTAGAGAAAGGGAA", 0.68),
    ("GATACTGGGTCAGCTAGAGGCCAGAGTATGGAAA", -0.28),
    ("CGTCCAAGTTCAGAGAGGTCAGTGAATGCCGAGT", 1.51),
    ("ACTCAAAGTTCAGGACGAGGTAACGTAAAGCACG", 0.77),
    ("CCTCGGAGGACAACAGTAGGTCAGAGCTGCCAGA", -0.275),
    ("ATATGTAGGTTACATCCGGGTCATTCAGGCTATG", 0.928),
    ("GCTAGTTGATCAGTAAAAGGTCACACACCGGTCG", 2.24),
    ("CTCGTAAGGTCGTGCTCAGGTGAGTATACCAAAC", -0.224),
    ("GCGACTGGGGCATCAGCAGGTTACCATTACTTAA", -0.0866),
    ("TCTTGTAGATCAAGCCGGTTAAGAAAGCCTGAGT", -0.0189),
    ("TGAATGAGGTTATAAGATCAGCGAACGTTGCAAA", -0.341),
    ("CCTACTGGGCCAGGAAAGGTCATTGATTCAGTGA", 0.0596),
    ("CCTACTGGACCATTCAGAGGTCATTGATCATATG", 1.66),
    ("ATCTCTAGGTAACAAGTTCAGTGTAAGAGAGGAC", 1.11),
    ("TAGCCAAGGTCATGGGCCAGTATACCACGCGAAC", 0.369),
]

----------
Test system: LXRa:RXRa (NR concentration 270 nM, RXRa partner concentration 90 nM)
TEST: PBM binding z-score (relative to random genomic background probes); higher = stronger binding; sequences stand for … in GC…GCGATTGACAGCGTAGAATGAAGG
Label true (1) when PBM binding z-score is at or above 1; otherwise label false (0).

# SEQUENCE_TEXT, ASSIGNED_LABEL
records = [
    ("CCTGCTAGGTCCTGGTCAGCTAATCTACAGTATG", "false (0)"),
    ("CCTACTAGGCCATCAGGTCATTGATATCAACGTT", "true (1)"),
    ("ATTTCTAGGTAAAGTTCAGTGAAAGATCGATAGA", "true (1)"),
    ("CCTACTGGGCCACGAAAAGTCATTGATTCAGTGA", "false (0)"),
    ("ATCGCAAGGTCGTGAGGTGAGTATACAGAAAGGC", "true (1)"),
    ("GCTAGTTGGTCAGTAAAAGGTCACAGACCGGTCG", "true (1)"),
    ("AGAATGAGGTTATTAATATCAGGGAATTGCGGTC", "true (1)"),
    ("TCATATAGGTAAACAGGTTAAAGTCCGTAAGTTA", "true (1)"),
    ("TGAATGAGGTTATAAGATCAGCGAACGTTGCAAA", "true (1)"),
    ("GGAACGAGGGCAAAGATGATAGCATCTGTCGACG", "false (0)"),
]
